Answer each item with its documented binding affinity ratio (IC50 of standard peptide / IC50 of test peptide).
system under test: HLA-DR4w15 (DRB1*0405) (human)
Give bare numbers.

Recorded results for 2 binders are shown here.
binder	assay result
KYLVIVFLIFFDLFL (modifications not checked)	-0.003
ILSVFFLALFFIIFN (modifications not checked)	-0.0009

Batch lookup, binding affinity ratio (IC50 of standard peptide / IC50 of test peptide) per entry.
1. TVLLGGVGLVLYNTE (modifications not checked)
2. VSTVLLGGVGLVLYN (modifications not checked)
3. LIDVHDLISDMIKKE (modifications not checked)
4. CVEVEKTASCGVWDE (modifications not checked)
5. IGPFMKAVCVEVEKT (modifications not checked)

Resp:
-0.0009
-0.0009
0.0076
-0.0009
0.0086

Reference for the values: patent US9266930
